System: T98 (p53 mutant glioblastoma multiforme) cells
EXPERIMENT NOTES: MTT cytotoxicity assay, T98 cells
Format: cell-based, human
DETAILS: Homo sapiens, T98, 48 h, MTT, 48 h treatment
I'd be grateful if you could share measured pIC50 for these entries.
Bear in mind: pIC50 is minus log10 of a mol/L concentration; give just that figure.

Please fill in: pIC50 reported for CC(=O)NN=C(c1ccccc1)c1ccccn1 [H2BzMe, 2-benzoylpyridine acetylhydrazone] = 4.70

get_value(item= CC(=O)NN=C(C)c1ccccn1 [H2AcMe, 2-Acetylpyridine acetylhydrazone] , readout=pIC50) returns 4.86

---

Test system: U87 (p53 wild-type glioblastoma multiforme) cells
EXPERIMENT NOTES: MTT cytotoxicity assay, U87 cells
Assay type: cell-based, human
DETAILS: Homo sapiens, U-87 MG; MTT, 48 h treatment
Task for the reader: assign each of the following compounds its reported IC50.
Report as a plain number; the unit µM is understood.

Lab book: IC50 of CC(=O)NN=C(c1ccccc1)c1ccccn1 [H2BzMe, 2-benzoylpyridine acetylhydrazone] noted as 52.3

The reported IC50 of the compound CC(=O)NN=C(C)c1ccccn1 [H2AcMe, 2-Acetylpyridine acetylhydrazone] was 67.6

---

Task for the reader: assign each of the following molecules its reported IC50.
Test system: T98 (p53 mutant glioblastoma multiforme) cells
EXPERIMENT NOTES: MTT cytotoxicity assay, T98 cells
Format: cell-based, human
DETAILS: MTT, 48 h treatment
A number alone suffices; assume µM.

# IC50 of N.N.[Cl][Pt][Cl] [Cisplatin, [cis(Diaminedichloro)platinum(II)], reference compound] = 5.31

`CC(=O)NN=C(c1ccccc1)c1ccccn1.[Cl][Cu][Cl]` has a reported IC50 of 29.4

Recorded IC50 (molecule `CC(=O)NN=C(C)c1ccccn1.[Cl][Cu][Cl]` ): 5.08

Memo: CC(=O)NN=C(c1ccccc1)c1ccccn1 [H2BzMe, 2-benzoylpyridine acetylhydrazone] , reported IC50: 19.7

---

System: U87 (p53 wild-type glioblastoma multiforme) cells
EXPERIMENT NOTES: MTT cytotoxicity assay, U87 cells
Format: cell-based, human
DETAILS: MTT, 48 h treatment
MEASURED METRIC: IC50 (µM)
Please give a number only; it is taken to be in µM.

The measured IC50 associated with N.N.[Cl][Pt][Cl] [Cisplatin, [cis(Diaminedichloro)platinum(II)], reference compound] reads 1.76

# IC50 (compound: `CC(=O)NN=C(c1ccccc1)c1ccccn1.[Cl][Cu][Cl]` ) is 5.95

IC50 reading for `CC(=O)NN=C(C)c1ccccn1.[Cl][Cu][Cl]` : 3.02

Provenance of the data: paper PMC6270821
